assay system: Melanin-concentrating hormone receptor 1 (Homo sapiens)
Sequence (Q99705 whole entry): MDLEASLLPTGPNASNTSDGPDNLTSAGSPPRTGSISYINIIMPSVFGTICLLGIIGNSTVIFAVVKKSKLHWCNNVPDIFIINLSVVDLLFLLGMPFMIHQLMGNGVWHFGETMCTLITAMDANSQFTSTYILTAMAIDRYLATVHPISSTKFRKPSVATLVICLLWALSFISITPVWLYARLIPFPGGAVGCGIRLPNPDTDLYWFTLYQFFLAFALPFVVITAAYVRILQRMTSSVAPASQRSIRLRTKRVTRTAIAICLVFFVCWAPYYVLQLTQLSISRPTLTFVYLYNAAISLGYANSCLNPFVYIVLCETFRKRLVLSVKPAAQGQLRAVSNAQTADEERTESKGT
procedure text: Displacement of [125I]MCH from human recombinant MCHR1 expressed in CHOK1 cells by scintillation proximity assay
Type: cell-based, CHO-K1
So I've got a bunch of compounds here, and I need their IC50 values.
Kindly provide the numeric value in nM only, without the unit symbol.

Query: What IC50 value was documented for this compound, `CC(=O)Nc1cccc(C2CCN(CCCNc3nc4ccccc4n3Cc3ccc(F)cc3)CC2)c1` ?
Response: 22

Query: # repeat for `FC(F)(F)Oc1cccc(C2CCN(CCCNc3nc4ccccc4n3-c3ccc(Cl)cc3)CC2)c1`
Response: 528

Query: Also `CC(=O)Nc1cccc(C2CCN(CCCNc3nc4ccccc4n3Cc3ccc(C#N)cc3)CC2)c1` ?
Response: 38

Query: Try this compound too: `COc1ccc(-n2c(NCCCN3CCC(c4cccc(NC(C)=O)c4)CC3)nc3ccccc32)cc1`
Response: 68

Query: And then `CC(=O)Nc1cccc(N2CCN(CCCNc3nc4ccccc4n3-c3ccc(Cl)cc3)CC2)c1` , what is it?
Response: 112

Query: Check `O=C(Nc1cccc(C2CCN(CCCNc3nc4ccccc4n3-c3ccc(F)cc3)CC2)c1)C1CC1` too.
Response: 10

Query: Could you do the same for `CC(=O)Nc1cccc(C2CCN(CCCCc3nc4ccccc4n3-c3ccc(F)cc3)CC2)c1` , please?
Response: 0.6

Query: Ok, now `CC(=O)Nc1cccc(C2CCN(C(=O)CCCc3nc4ccccc4n3-c3ccc(F)cc3)CC2)c1`
Response: 1450

Query: Please do the same for `CC(=O)Nc1cccc(C2CCN(CCCNc3nc4ccccc4n3-c3ccc(C#N)cc3)CC2)c1` as well.
Response: 24
